- target_desc: 5-hydroxytryptamine receptor 2A (Rattus norvegicus, UniProt P14842)
- Sequence (P14842 whole entry): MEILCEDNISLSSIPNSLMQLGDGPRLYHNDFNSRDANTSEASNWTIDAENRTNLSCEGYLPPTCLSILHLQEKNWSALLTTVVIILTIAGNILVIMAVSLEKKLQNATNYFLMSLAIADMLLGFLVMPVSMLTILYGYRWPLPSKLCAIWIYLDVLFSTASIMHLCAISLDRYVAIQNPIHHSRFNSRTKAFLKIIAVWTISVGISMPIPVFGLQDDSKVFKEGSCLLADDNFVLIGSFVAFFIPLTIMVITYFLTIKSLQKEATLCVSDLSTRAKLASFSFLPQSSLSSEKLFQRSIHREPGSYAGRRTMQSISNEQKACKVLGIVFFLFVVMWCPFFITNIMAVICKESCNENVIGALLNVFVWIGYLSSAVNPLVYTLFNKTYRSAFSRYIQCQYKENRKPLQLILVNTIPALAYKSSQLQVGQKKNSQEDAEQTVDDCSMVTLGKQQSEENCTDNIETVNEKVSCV
pKi: −log10 of the molar value.
Tag: YES if measured pKi is not below 7, NO if it is.

- molecule: "O=C1NC2(CCCc3ccccc32)C(=O)N1CCCCN1CCN(c2cccc(Cl)c2)CC1 (stereo not drawn)"
  class_label: "YES"
- molecule: "O=C1NC2(CCC(c3ccccc3)CC2)C(=O)N1CCCCN1CCN(c2cccc(Cl)c2)CC1 (stereo not drawn)"
  class_label: "YES"
- molecule: "COc1ccccc1N1CCN(CCCCN2C(=O)NC3(CCCc4ccccc43)C2=O)CC1 (stereo not drawn)"
  class_label: "YES"
- molecule: "O=C1NC2(CCCCC2c2ccccc2)C(=O)N1CCCCN1CCN(c2ccccc2)CC1 (stereo not drawn)"
  class_label: "NO"
